B1: LINE1-mini (parent)
chain: GGCAGAGCUCAACACAGCGUGGCAAAGUGGCUGUGGCUAGACUGCC

Variants of: B1
Assay: self-cleavage, relative activity (ratio to wild type); higher = more cleavage; in vitro, sequencing; the parent is a self-cleaving ribozyme
Entry class follows self-cleavage: group 1: < 0.07; group 2: ≥ 0.07 and < 0.3; group 3: ≥ 0.3

{"columns": ["mutantId", "label"],
 "data": [
  ["A6C A41G", "group 3"],
  ["G19C A24C", "group 3"],
  ["G21A G44A", "group 3"],
  ["C18U C45G", "group 2"],
  ["C31A U43A", "group 2"],
  ["A6C G33U", "group 2"],
  ["G2C U43G", "group 1"],
  ["G40A", "group 2"],
  ["U9C G44A", "group 1"],
  ["G33C G35C", "group 1"]
]}
